The following proteins are shown together with reported Km values.
Substrate: O=C1CCCC/C1=C\c1ccccc1
Assay: purified protein
Assay type: biochemical, Bacillus subtilis
Conditions: 1.0 mM NADPH, 10 μM enzyme, PBS 100 mM, pH 7.5, 30 °C

Recorded results for 2 proteins are shown here.
{"protein": "YqjM (Bacillus subtilis subsp. subtilis str. 168) (protein, ene-reductase, FMN enzyme) ARKLFTPITIKDMTLKNRIVMSPMCMYSSHEKDGKLTPFHMAHYISRAIGQVGLIIVEASAVNPQGRITDQDLGIWSDEHIEGFAKLTEQVKEQGSKIGIQLAHAGRKAELEGDIFAPSAIAFDEQSATPVEMSAEKVKETVQEFKQAAARAKEAGFDVIEIHAAHGYLIHEFLSPLSNHRTDEYGGSPENRYRFLREIIDEVKQVWDGPLFVRVSASDYTDKGLDIADHIGFAKWMKEQGVDLIDCSSGALVHADINVFPGYQVSFAEKIREQADMATGAVGMITDGSMAEEILQNGRADLIFIGRELLRDPFFARTAAKQLNTEIPAPVQYERGW", "Km": "7.98 ± 0.18 mM"}
{"protein": "YqjM (Bacillus subtilis subsp. subtilis str. 168; I69Y) (protein, ene-reductase, FMN enzyme) ARKLFTPITIKDMTLKNRIVMSPMCMYSSHEKDGKLTPFHMAHYISRAIGQVGLIIVEASAVNPQGRYTDQDLGIWSDEHIEGFAKLTEQVKEQGSKIGIQLAHAGRKAELEGDIFAPSAIAFDEQSATPVEMSAEKVKETVQEFKQAAARAKEAGFDVIEIHAAHGYLIHEFLSPLSNHRTDEYGGSPENRYRFLREIIDEVKQVWDGPLFVRVSASDYTDKGLDIADHIGFAKWMKEQGVDLIDCSSGALVHADINVFPGYQVSFAEKIREQADMATGAVGMITDGSMAEEILQNGRADLIFIGRELLRDPFFARTAAKQLNTEIPAPVQYERGW", "Km": "4.56 ± 0.12 mM"}

Moving on to another protein below.
Return reported Km. Input protein: YqjM (Bacillus subtilis subsp. subtilis str. 168; C26A/I69Y) (protein, ene-reductase, FMN enzyme) ARKLFTPITIKDMTLKNRIVMSPMAMYSSHEKDGKLTPFHMAHYISRAIGQVGLIIVEASAVNPQGRYTDQDLGIWSDEHIEGFAKLTEQVKEQGSKIGIQLAHAGRKAELEGDIFAPSAIAFDEQSATPVEMSAEKVKETVQEFKQAAARAKEAGFDVIEIHAAHGYLIHEFLSPLSNHRTDEYGGSPENRYRFLREIIDEVKQVWDGPLFVRVSASDYTDKGLDIADHIGFAKWMKEQGVDLIDCSSGALVHADINVFPGYQVSFAEKIREQADMATGAVGMITDGSMAEEILQNGRADLIFIGRELLRDPFFARTAAKQLNTEIPAPVQYERGW
2.98 ± 0.1 mM
